# Test system: morphine effect
# Experimental Protocol: Narcotic antagonist activity, modified rat tail flick test
# Assay type: in vivo, rats (male albino Wistar)
# Particulars: Rattus norvegicus, ip; rats, test drug i.p. 10 minutes before ED80 dose of morphine s.c.; Table I; read-out: AD50 (the source's name)
We begin with a simple list: items and their reported ED50.
Unit mg/kg implied. Number only.

Compound | Measurement Target | ED50 / mg/kg
C[C@@H]1[C@H]2[C@H]3Cc4ccc(O)c5c4[C@@]2(CCN3CC2CC2)[C@@H](O5)C(=O)[C@H]1C.Cl [TR-5416] | morphine effect | 0.57
CC[C@@H]1CC(=O)[C@@H]2Oc3c(O)ccc4c3[C@@]23CCN(CC2CC2)[C@H](C4)[C@H]13.Cl [TR-5436] | morphine effect | 4.1
O=C1CC[C@H]2[C@H]3Cc4ccc(O)c5c4[C@@]2(CCN3CC2CCC2)[C@H]1O5 [TR-5128] | morphine effect | 1.7

Would you kindly look at the next entry?
Recorded ED50 (compound COc1ccc2c3c1O[C@H]1C(=O)CC[C@H]4[C@@H](C2)N(CC2CC2)CC[C@]314 [TR-5095, reference compound] ): 3.4

====

# Tested on: writhing
# Experimental Protocol: Acetic acid mouse writhing test (analgesic effects)
# Assay type: in vivo, mice (male CD-1)
# Particulars: Mus musculus, sc, 0.25 h; mice, subcutaneous, acetic acid i.p. 15 minutes post drug; Table I; read-out: ED50
We begin with a simple list: items and their reported ED50.
Unit mg/kg implied. Number only.

Compound | ED50 / mg/kg
CC[C@@H]1CC(=O)[C@@H]2Oc3c(O)ccc4c3[C@@]23CCN(CC2CC2)[C@H](C4)[C@H]13.Cl [TR-5436] | 0.36

Recorded ED50 (compound O=C1CC[C@H]2[C@H]3Cc4ccc(O)c5c4[C@@]2(CCN3CC2CCC2)[C@H]1O5 [TR-5128] ): 0.07

Recorded ED50 (compound COc1ccc2c3c1O[C@H]1C(=O)[C@@H](C)C[C@H]4[C@@H](C2)N(CC2CCC2)CC[C@]314.Cl [TR-5403] ): 9

====

# System: writhing
# Experimental Protocol: Acetic acid mouse writhing test (analgesic effects)
# Assay type: in vivo, mice (male CD-1)
# Particulars: Mus musculus, sc, 0.25 h; mice, subcutaneous, acetic acid i.p. 15 minutes post drug; Table I; read-out: ED50
Structures can show the parent of a compound that is named as a salt.
Metric: ED50 (mg/kg)
Unit mg/kg implied. Number only.

Compound | Result Units | Numeric Result
C[C@H]1C[C@H]2[C@H]3Cc4ccc(O)c5c4[C@@]2(CCN3CC2CCC2)[C@@H](O5)C1=O [TR-5404, Hydrochloride] | mg/kg | 0.3

Recorded ED50 (compound "CC[C@H]1CC(=O)[C@@H]2Oc3c(OC)ccc4c3[C@@]23CCN(CC2CC2)[C@H](C4)[C@H]13.Cl" ): 2.1

Recorded ED50 (compound "C[C@@H]1[C@H]2[C@H]3Cc4ccc(O)c5c4[C@@]2(CCN3CC2CCC2)[C@@H](O5)C(=O)[C@H]1C" ): 5.8

Recorded ED50 (compound "C[C@H]1CC(=O)[C@@H]2Oc3c(O)ccc4c3[C@@]23CCN(CC2CCC2)[C@H](C4)[C@H]13.Cl" ): 0.67

Recorded ED50 (compound COc1ccc2c3c1O[C@H]1C(=O)CC[C@H]4[C@@H](C2)N(CC2CC2)CC[C@]314 [TR-5095, reference compound] ): 17

Recorded ED50 (compound Br.COc1ccc2c3c1O[C@H]1C(=O)CC[C@H]4[C@@H](C2)N(CC2CCC2)CC[C@]314 [TR-5108, reference compound] ): 8.8
